Form field: IC50 (one value per entry).
# Target Desc: recombinant human baculovirus-expressed GST-tagged FASN (Homo sapiens)
# Construct: GST
# Sequence (P49327 whole entry): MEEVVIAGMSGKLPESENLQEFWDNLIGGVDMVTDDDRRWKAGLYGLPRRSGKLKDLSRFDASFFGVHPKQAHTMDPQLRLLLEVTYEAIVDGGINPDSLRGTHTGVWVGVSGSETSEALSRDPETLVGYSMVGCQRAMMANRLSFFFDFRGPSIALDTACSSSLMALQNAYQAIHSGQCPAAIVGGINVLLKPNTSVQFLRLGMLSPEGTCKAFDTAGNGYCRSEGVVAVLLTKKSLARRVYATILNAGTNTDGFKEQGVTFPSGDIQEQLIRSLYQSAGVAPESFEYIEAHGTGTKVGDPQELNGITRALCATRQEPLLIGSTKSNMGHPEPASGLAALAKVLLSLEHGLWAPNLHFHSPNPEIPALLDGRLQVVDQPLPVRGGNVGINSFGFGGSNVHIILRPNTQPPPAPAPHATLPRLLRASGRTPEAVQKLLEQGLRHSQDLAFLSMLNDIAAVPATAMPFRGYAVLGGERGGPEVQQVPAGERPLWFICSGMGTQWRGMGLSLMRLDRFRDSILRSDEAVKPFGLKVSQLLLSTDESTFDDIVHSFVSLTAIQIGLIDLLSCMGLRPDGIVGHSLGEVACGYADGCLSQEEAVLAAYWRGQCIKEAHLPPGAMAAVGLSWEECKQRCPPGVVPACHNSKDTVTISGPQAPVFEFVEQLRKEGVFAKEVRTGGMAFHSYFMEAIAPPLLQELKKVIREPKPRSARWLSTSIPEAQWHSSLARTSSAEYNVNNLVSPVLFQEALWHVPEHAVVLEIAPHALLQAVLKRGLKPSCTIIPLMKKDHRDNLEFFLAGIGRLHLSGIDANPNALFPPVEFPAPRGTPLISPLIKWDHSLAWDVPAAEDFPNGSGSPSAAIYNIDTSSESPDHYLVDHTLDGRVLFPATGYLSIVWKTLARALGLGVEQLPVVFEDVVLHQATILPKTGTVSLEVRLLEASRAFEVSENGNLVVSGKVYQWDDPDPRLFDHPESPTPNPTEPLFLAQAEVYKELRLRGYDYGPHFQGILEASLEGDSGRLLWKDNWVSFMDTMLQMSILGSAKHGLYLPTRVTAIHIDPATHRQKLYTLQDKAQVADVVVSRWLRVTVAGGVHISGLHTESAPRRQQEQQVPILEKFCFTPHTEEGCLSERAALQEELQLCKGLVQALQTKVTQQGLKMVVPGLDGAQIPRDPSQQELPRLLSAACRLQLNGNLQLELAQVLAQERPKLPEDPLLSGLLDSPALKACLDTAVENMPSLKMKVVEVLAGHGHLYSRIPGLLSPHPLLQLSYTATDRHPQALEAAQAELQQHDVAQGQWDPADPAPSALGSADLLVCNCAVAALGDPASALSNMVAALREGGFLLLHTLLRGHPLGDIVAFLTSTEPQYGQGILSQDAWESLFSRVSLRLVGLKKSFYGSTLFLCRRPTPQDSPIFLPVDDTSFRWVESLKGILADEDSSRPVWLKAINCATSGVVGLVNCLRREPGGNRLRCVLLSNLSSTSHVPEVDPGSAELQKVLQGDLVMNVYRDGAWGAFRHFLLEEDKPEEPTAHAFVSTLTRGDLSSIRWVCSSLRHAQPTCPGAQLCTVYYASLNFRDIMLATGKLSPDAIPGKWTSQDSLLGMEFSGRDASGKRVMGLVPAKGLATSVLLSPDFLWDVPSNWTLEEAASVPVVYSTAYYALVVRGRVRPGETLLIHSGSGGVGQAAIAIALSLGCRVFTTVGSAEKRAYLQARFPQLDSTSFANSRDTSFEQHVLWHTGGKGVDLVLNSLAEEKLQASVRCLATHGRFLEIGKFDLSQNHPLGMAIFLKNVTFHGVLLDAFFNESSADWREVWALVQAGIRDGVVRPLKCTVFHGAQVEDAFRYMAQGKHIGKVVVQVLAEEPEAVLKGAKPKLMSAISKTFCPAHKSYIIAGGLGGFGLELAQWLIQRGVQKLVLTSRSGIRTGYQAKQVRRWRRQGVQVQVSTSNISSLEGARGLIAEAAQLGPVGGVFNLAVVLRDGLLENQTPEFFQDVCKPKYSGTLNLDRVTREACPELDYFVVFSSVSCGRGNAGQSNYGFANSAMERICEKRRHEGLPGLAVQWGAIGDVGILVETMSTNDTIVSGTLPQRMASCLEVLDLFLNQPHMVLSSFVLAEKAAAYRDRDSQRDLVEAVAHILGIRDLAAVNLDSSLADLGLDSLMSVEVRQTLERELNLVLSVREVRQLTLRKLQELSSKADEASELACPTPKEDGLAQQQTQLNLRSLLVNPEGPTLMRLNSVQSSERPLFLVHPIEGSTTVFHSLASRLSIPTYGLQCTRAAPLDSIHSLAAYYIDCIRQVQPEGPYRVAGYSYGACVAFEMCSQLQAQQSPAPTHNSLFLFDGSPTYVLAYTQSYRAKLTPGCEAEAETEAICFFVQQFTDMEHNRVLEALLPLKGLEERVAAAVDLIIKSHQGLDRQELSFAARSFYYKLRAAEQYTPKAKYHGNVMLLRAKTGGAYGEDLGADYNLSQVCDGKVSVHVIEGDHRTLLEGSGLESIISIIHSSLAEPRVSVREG
# Assay Summary: biochemical
# Condition Context: 5 nM FASN, 150 μM NADPH, 10 μM acetyl-CoA, 25 μM malonyl-CoA, 90 minutes incubation; read-out: IC50 data for Compounds of Formula I, Activity

Below: 5 compounds and their reported IC50.
* O=C(NO)N1CCC2(CCc3cc(-c4ccc5cccnc5c4Cl)ccc3O2)CC1 | 100 to 999 nM
* CONC(=O)N1CCC2(CCc3cc(-c4ccc5c(C)nccc5c4)cc(F)c3O2)CC1 | 1 to 99 nM
* CC(=O)OCC(=O)N1CCC2(CCc3cc(-c4ccc5cccnc5c4Cl)ccc3O2)CC1 | 100 to 999 nM
* CCC(=O)N1CCC2(CC1)CC(=O)c1cc(-c3cnc4ccccc4c3)ccc1O2 | 100 to 999 nM
* Cc1c(-c2ccc3c(c2)CCC2(CCN(C(=O)CO)CC2)O3)ccc2cccnc12 | 100 to 999 nM

Determine its reported IC50: CCNC(=O)N1CCC2(CCc3cc(-c4ccc5cccnc5c4Cl)ccc3O2)CC1
1 to 99 nM

Determine its reported IC50: CONC(=O)N1CCC2(CC1)Cc1cc(-c3ccc4cccnc4c3C)ccc1O2
1000 to 10000 nM

Determine its reported IC50: CONC(=O)N1CCC2(CC1)Cc1cc(-c3ccc4cccnc4c3OC)ccc1O2
1000 to 10000 nM
